Please provide measured remaining at 10 min for the entries that follow.
Measurement notes: Metabolic stability in mouse liver microsomes assessed as compound remaining after 10 mins
Type: ADME, Microsome
Run conditions: read-out: Stability
Numbers only, in %.

Before answering, review these 4 worked examples.
{"Structure as smiles": "N#Cc1c[nH]c(C(=O)Nc2ccc(C3CCN(C(=O)c4cc[n+]([O-])cc4)CC3)cc2C2=CCCCC2)n1", "Assay value": 92}
{"Structure as smiles": "N#Cc1c[nH]c(C(=O)Nc2ccc(C3CCN(C(=O)NCCO)CC3)cc2C2=CCCCC2)n1", "Assay value": 61}
{"Structure as smiles": "N#Cc1c[nH]c(C(=O)Nc2ccc(C3CCN(C(=O)CCN4CCOCC4)CC3)cc2C2=CCCCC2)n1", "Assay value": 23}
{"Structure as smiles": "CC(C)(N)C(=O)N1CCC(c2ccc(NC(=O)c3nc(C#N)c[nH]3)c(C3=CCCCC3)c2)CC1", "Assay value": 93}

// batch mode: one remaining at 10 min value per listed entry
1. N#Cc1c[nH]c(C(=O)Nc2ccc(C3CCN(C(=O)[C@H](O)CO)CC3)cc2C2=CCCCC2)n1
2. N#Cc1c[nH]c(C(=O)Nc2ccc(C3CCN(C(=O)Cc4ccccn4)CC3)cc2C2=CCCCC2)n1
3. N#Cc1c[nH]c(C(=O)Nc2ccc(C3CCN(C(=O)CN4CCOCC4)CC3)cc2C2=CCCCC2)n1
4. Cn1cnc(CC(=O)N2CCC(c3ccc(NC(=O)c4nc(C#N)c[nH]4)c(C4=CCCCC4)c3)CC2)c1
5. CN(CCO)CC(=O)N1CCC(c2ccc(NC(=O)c3nc(C#N)c[nH]3)c(C3=CCCCC3)c2)CC1
6. N#CCCN1CCC(c2ccc(NC(=O)c3nc(C#N)c[nH]3)c(C3=CCCCC3)c2)CC1

100
37
23
90
60
93
